System: HSV-1
Assay: Anti-HSV-1 replication assay (Vero cells, plaque titer)
Type: cell-based, herpes simplex virus 1
Conditions: Human alphaherpesvirus 1, Vero, Table 2 amides; compound at 0.33 μM; read-out: HSV-1 suppression 0.33 μM
Attribute Measured: log reduction at 0.33 µM
Just the number, please, no unit attached.

Here are 3 compounds together with their reported answers.
- Mol: "Cc1cc(O)c(=O)c(O)cc1C(=O)NCc1ccc(Oc2ccccc2)cc1"
  log reduction at 0.33 µM: 0.0714
- Mol: "Cc1cc(O)c(=O)c(O)cc1C(=O)Nc1cccc(Cc2ccccc2)c1"
  log reduction at 0.33 µM: 0.0848
- Mol: "Cc1cc(O)c(=O)c(O)cc1C(=O)Nc1ccc(Cc2ccccc2)cc1"
  log reduction at 0.33 µM: -0.0103

API: value(readout= log reduction at 0.33 µM, system= HSV-1, query= `Cc1cc(O)c(=O)c(O)cc1C(=O)NCc1ccc(OC(F)(F)F)cc1` ) 0.191

====

Target: human RNaseH1 (Homo sapiens)
Sequence (O60930 whole entry): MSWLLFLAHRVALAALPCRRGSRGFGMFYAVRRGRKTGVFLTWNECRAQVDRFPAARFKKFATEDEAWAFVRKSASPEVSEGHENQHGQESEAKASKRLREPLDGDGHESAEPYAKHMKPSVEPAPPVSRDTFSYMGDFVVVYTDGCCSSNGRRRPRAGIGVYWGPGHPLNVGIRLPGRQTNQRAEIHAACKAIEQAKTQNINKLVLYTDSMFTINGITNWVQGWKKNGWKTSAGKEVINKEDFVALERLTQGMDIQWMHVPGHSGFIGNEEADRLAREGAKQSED
Experiment: Biochemical inhibition of human RNaseH1 activity
Conditions: Table 2 amides; read-out: HuRH1 IC50
pIC50: −log10 of the molar value.
Outcome label depends on pIC50 relative to 4: at/above gives true, below gives false.

For orientation, consider the following solved cases.
- Compound: "Cc1cc(O)c(=O)c(O)cc1C(=O)Nc1ccc(Cc2ccccc2)cc1 [compound 798]"
  Experimental System: "human RNaseH1 (Homo sapiens)"
  Assigned Category: "false"
- Compound: "COc1ccc(C(=O)N2CCN(C(=O)c3cc(O)c(=O)c(O)cc3C)CC2)cc1 [compound 877]"
  Experimental System: "human RNaseH1 (Homo sapiens)"
  Assigned Category: "true"
- Compound: "Cc1cc(O)c(=O)c(O)cc1C(=O)Nc1ccc(F)cc1F [compound 711]"
  Experimental System: "human RNaseH1 (Homo sapiens)"
  Assigned Category: "false"

Lab note: next compound to report on.
Quick check: does Cc1cc(O)c(=O)c(O)cc1C(=O)Nc1ccc(F)nc1 [compound 707] have pIC50 greater than or equal to 4? false

====

Test: in vitro
Details: human, CC50; HepDES19 cells
Attribute Measured: CC50 at 24 h (µM)
Please respond with the number in µM and leave the unit unwritten.

- Molecule: "Cc1cc(O)c(=O)c(O)cc1C(=O)NC(CCC(=O)O)C(=O)O (stereo not drawn)"
  Assay Value: 100
- Molecule: "CCCCS(=O)(=O)c1ccc(S(=O)(=O)CCCC)c(O)c(=O)c1O"
  Assay Value: 100
- Molecule: "CSc1cccc(O)c(=O)c1O"
  Assay Value: 100
- Molecule: "CC(C)S(=O)(=O)c1ccc(S(=O)(=O)C(C)C)c(O)c(=O)c1O"
  Assay Value: 100
- Molecule: "Cc1cc(O)c(=O)c(O)cc1C(=O)NCc1ccc(-c2ccccc2)cc1"
  Assay Value: 1.8

Attention now shifts to the item below.
# input molecule: `Cc1cc(O)c(=O)c(O)cc1C(=O)Nc1ccc(Cc2ccccc2)cc1` ; wanted: its CC50 at 24 h 3.3

====

System: HBV replication
Experiment: HBV replication inhibition in HepDES19 cells (strand-preferential qPCR)
Conditions: Hepatitis B virus, HepDES19, read-out: EC50 against HBV replication
The reader will find reported pEC50 values listed item by item below.
For clarity, pEC50 is expressed as the negative log10 of concentration in mol/L.

Here are 2 compounds together with their reported answers.
- Mol: "Cc1cc(O)c(=O)c(O)cc1C(=O)N1CCCCC1"
  pEC50: 6.51
- Mol: "CS(=O)(=O)c1cccc(O)c(=O)c1O"
  pEC50: 6.39

Attention now shifts to the item below.
# input compound: `O=c1c(O)cccc(SCCc2ccccc2)c1O` ; wanted: its pEC50 4.28
